Where these numbers come from: paper PMC4446823

Recorded EC50 by entry
- assay-system: RORγt (Homo sapiens, UniProt P51449)
- Construct: expressed in transfected cells
- Sequence (P51449 269-508 limits assumed): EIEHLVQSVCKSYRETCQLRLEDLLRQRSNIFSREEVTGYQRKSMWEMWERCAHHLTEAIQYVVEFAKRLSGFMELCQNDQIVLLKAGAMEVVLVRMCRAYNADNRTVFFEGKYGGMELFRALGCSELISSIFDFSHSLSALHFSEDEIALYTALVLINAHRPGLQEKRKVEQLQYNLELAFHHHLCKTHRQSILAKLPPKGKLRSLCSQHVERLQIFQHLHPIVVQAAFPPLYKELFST
- test-description: Gal4/RORγt-LBD luciferase reporter assay in RORγt-LBD+ Jurkat stable cells
- Format: cell-based
- experimental-parameters: RORγt-LBD+ Jurkat cells, 6 h; read-out: EC50, inhibition of RORγt activity, Gal4/RORγt-reporter system
measured-parameter: EC50 (µM)

compound="O=C(c1ccc(C2CCCCC2)cc1)N(CC1CCCO1)C1CCS(=O)(=O)C1 (stereo not shown)" measured_parameter=EC50 value_measured=17.5
compound=CCCc1cc(C(=O)OCC(=O)NC(=O)NC2CCCC2)sc1C measured_parameter=EC50 value_measured=4.2
compound=CCc1nnc(NC(=O)C2(S(=O)(=O)c3ccc(C)c(C)c3)CCCC2)s1 measured_parameter=EC50 value_measured=28
compound="Cc1cc(NC(=O)NC(c2ccc(C(C)C)cc2)c2cccs2)no1 (stereo not shown)" measured_parameter=EC50 value_measured=2.1

====

- test-description: Jurkat cell viability, MTT assay
- Assay type: cell-based, human
- experimental-parameters: human, wild-type Jurkat cells, highest concentration 5 μM
measured-parameter: CC50 at 48 h

compound="Cc1cc(NC(=O)NC(c2ccc(C(C)C)cc2)c2cccs2)no1 (stereo not shown) [compound 29]" measured_parameter="CC50 at 48 h" value_measured="> 5 µM"

====

- Tested on: wild type Jurkat cells
- test-description: Jurkat cell viability, MTT assay
- Format: cell-based, human
- experimental-parameters: wild-type Jurkat cells, 48 h, highest concentration 5 μM
- Description: Jurkat cell viability after culturing in the presence of the screened compounds was assessed by MTT assay. In brief, wild type Jurkat cells were seeded (2 × 10^4) and incubated with the compounds in 5-fold gradient dilutions. […] Absorbance at 570 nm wavelength was recorded using Thermo Scientific Multiskan FC (Thermo Scientific, Waltham, MA, USA). […]
measured-parameter: CC50

compound="CCCc1cc(C(=O)OCC(=O)NC(=O)NC2CCCC2)sc1C [compound 36]" assay_system="wild type Jurkat cells" value_measured="> 5 µM"

====

- System: wild type Jurkat cells
- test-description: Jurkat cell viability, MTT assay
- Assay type: cell-based, human
- experimental-parameters: 5 μM (highest concentration), 48 h
measured-parameter: reduction of Jurkat cell viability over vehicle control

molecule=CCc1nnc(NC(=O)C2(S(=O)(=O)c3ccc(C)c(C)c3)CCCC2)s1 value_measured="less than 25%"
molecule="O=C(c1ccc(C2CCCCC2)cc1)N(CC1CCCO1)C1CCS(=O)(=O)C1 (stereo not shown)" value_measured="less than 25%"
molecule="Cc1cc(NC(=O)NC(c2ccc(C(C)C)cc2)c2cccs2)no1 (stereo not shown)" value_measured="less than 25%"
